From: patent US7794967B2

# collection of IC50 values tested on mammalian poly(A)-specific ribonuclease (PARN) (Bos taurus)
# Sequence (P69341 1-430 limits assumed): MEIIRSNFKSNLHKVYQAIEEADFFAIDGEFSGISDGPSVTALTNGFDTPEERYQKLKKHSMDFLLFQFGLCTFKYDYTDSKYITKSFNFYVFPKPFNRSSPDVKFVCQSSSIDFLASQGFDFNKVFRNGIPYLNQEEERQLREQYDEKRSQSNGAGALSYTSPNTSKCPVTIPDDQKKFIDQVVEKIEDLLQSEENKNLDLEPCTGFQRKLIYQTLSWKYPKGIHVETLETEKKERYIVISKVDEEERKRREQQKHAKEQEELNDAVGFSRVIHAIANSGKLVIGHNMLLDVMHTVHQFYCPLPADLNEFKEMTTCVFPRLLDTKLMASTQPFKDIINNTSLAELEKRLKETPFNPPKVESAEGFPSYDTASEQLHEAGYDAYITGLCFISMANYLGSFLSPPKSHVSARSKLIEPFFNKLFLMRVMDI
Report as a plain number; the unit µM is understood.

{"COMPOUND": "NC[C@@H]1O[C@H](O[C@H]2[C@@H](O)[C@H](O[C@@H]3[C@@H](O)[C@H](N)C[C@H](N)[C@H]3O[C@H]3O[C@H](CO)[C@@H](O)C[C@H]3N)O[C@@H]2CO)[C@H](N)[C@@H](O)[C@@H]1O[C@H]1O[C@H](CO)[C@@H](O)[C@H](O)[C@@H]1O [Lividomycin]", "IC50, µM": 18.7}
{"COMPOUND": "NC[C@@H]1O[C@H](O[C@H]2[C@@H](O)[C@H](O[C@@H]3[C@@H](O)[C@H](N)C[C@H](N)[C@H]3O[C@H]3O[C@H](CO)[C@@H](O)[C@H](O)[C@H]3N)O[C@@H]2CO)[C@H](N)[C@@H](O)[C@@H]1O [Paromomycin]", "IC50, µM": 17.3}
{"COMPOUND": "NC[C@@H]1O[C@H](O[C@H]2[C@@H](O)[C@H](O[C@@H]3[C@@H](O)[C@H](N)C[C@H](N)[C@H]3O[C@H]3O[C@H](CN)[C@@H](O)[C@H](O)[C@H]3N)O[C@@H]2CO)[C@H](N)[C@@H](O)[C@@H]1O [Neomycin B]", "IC50, µM": 0.4}
{"COMPOUND": "NC[C@H]1O[C@H](O[C@H]2[C@H](O)[C@@H](O[C@H]3O[C@H](CO)[C@@H](O)[C@H](N)[C@H]3O)[C@H](N)C[C@@H]2N)[C@H](N)[C@@H](O)[C@@H]1O [Kanamycin B]", "IC50, µM": 7.3}

// below: IC50 requested for another compound
Request: Request the reported IC50 associated with NC[C@H]1O[C@H](O[C@H]2[C@H](O)[C@@H](O[C@H]3O[C@H](CO)[C@@H](O)[C@H](N)[C@H]3O)[C@H](N)C[C@@H]2N)[C@H](N)C[C@@H]1O [Tobramycin]
Result: 7.1
